Target: T1, hPDGFRb.mmh (human, UniProt P09619 33-531)
T1 construct: Soluble monomeric construct; also called soluble human PDGFR-beta.mmh
T1 sequence (P09619 other isoform, or with tags, fused parts or gaps): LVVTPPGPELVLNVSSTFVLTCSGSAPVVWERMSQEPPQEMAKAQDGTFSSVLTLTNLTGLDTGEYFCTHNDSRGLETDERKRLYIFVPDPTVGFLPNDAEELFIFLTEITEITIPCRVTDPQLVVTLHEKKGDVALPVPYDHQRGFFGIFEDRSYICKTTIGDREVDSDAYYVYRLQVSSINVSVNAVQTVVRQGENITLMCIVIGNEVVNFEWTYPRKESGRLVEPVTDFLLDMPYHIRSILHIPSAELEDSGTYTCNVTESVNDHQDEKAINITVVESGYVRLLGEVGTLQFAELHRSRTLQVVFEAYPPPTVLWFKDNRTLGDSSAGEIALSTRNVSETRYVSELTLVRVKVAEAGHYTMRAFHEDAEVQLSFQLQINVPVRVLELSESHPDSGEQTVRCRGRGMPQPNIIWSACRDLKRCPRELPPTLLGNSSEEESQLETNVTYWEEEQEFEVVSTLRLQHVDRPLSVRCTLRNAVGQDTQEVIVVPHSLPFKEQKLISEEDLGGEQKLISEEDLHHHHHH
Assay: SPR, mAb captured, 25 C
Form field: t1/2 (one value per entry).

| Binder | t1/2 (min) |
| --- | --- |
| H4H3095S (antibody, human IgG4, V domains shown, human IgG4 Fc (H4H prefix)) VH: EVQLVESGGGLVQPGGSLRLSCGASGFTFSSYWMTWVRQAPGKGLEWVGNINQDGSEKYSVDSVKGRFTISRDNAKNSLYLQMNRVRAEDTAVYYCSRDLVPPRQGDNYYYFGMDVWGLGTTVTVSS VL: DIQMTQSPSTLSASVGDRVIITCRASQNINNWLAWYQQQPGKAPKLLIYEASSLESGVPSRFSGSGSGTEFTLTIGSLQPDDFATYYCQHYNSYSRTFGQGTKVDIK | 8 |
| H1M3361N (antibody, mouse IgG1, V domains shown, mouse IgG1 Fc (H1M prefix)) VH: EVQLVESGGGLVQPGGSLRLSCAASGFTFSSYWMTWVRQAPGKGLEWVANIRQDGSDKYYVDSVKGRFTISRDNAKNSLFLQMNSLRAEDTAVYYCARTNGGTYGYNHYYYGMDVWGQGTTVTVSS VL: DIQMTQSPSSLSASVGDRVTITCRASQGIRNDLGWYQLKPGKAPKRLIFAASSLQSGVPSRFSGSGSGTEFTLTISSLQPEDFATYYCLQHNSYPWTFGQGTKVEIK | 9 |
| H4H3374N (antibody, human IgG4, V domains shown, human IgG4 Fc (H4H prefix)) VH: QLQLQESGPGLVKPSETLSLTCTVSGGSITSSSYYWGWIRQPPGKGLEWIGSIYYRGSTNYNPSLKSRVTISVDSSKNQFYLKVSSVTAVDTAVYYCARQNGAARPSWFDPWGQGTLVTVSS VL: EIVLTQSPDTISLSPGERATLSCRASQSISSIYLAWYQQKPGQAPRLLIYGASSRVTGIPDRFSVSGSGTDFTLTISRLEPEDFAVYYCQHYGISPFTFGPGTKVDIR | 32 |
